property.name: melting point

Inquiry: Return reported melting point; argument: c1ccc(CCNc2nc(-c3ccccc3)cs2)cc1
Reply text: 115 to 117 °C

Continuing:
Inquiry: Return reported melting point; argument: Cc1nc(-c2ccc(F)cc2)sc1C(=O)O
Reply text: 251 to 253 °C

Inquiry: Also Cn1ccc(N2CCCC(Br)C2=O)n1 (stereo not drawn) ?
Reply text: 104 to 106 °C

Inquiry: Also COc1ccc(-n2ccnc2SCC(=O)O)cc1 ?
Reply text: 125 to 127 °C

Inquiry: Also Cc1ccc(N)cc1S(N)(=O)=O ?
Reply text: 151 to 153 °C

Inquiry: Also Cc1nc(Cl)c(C)c(NN)n1 ?
Reply text: 141 to 143 °C

* * *

property.name: melting point

Here's what some known entries look like.
Inquiry: Return reported melting point; argument: O=C(O)c1nn(-c2ccccc2F)c2c1CCC2
Reply text: 194 to 196 °C

Inquiry: Also Cc1nn(CCO)c(C(F)F)c1C(=O)O ?
Reply text: 148 to 150 °C

Inquiry: Also COCc1nc(C(=O)O)cs1 ?
Reply text: 106 to 108 °C

Inquiry: Also NS(=O)(=O)c1c[nH]c(C(=O)O)c1 ?
Reply text: 229 to 231 °C

Inquiry: Also O=C(O)c1cccc(S(=O)(=O)NC2CC2)c1 ?
Reply text: 188 to 192 °C

Inquiry: Also CCc1nnc(NC(=O)CCl)s1 ?
Reply text: 101 to 103 °C

Continuing:
Inquiry: Return reported melting point; argument: O=C(Nc1ccc(-n2cncn2)nc1)OCC(F)(F)F
Reply text: 192 to 194 °C

Inquiry: Also O=[N+]([O-])c1sccc1Br ?
Reply text: 80 to 82 °C

* * *

property.name: melting point

Inquiry: Return reported melting point; argument: O=C(O)c1cccc(NC(=O)c2ccc(Br)o2)c1
Reply text: 229 to 231 °C

Continuing:
Inquiry: Return reported melting point; argument: O=Cc1ccc(-c2ccc(Cl)c(C(F)(F)F)c2)o1
Reply text: 74 to 76 °C

Inquiry: Also COC(=O)CNS(=O)(=O)c1ccc(Cl)nc1 ?
Reply text: 124 to 126 °C

Inquiry: Also Cc1cc(S(N)(=O)=O)cc(NC(=O)CCl)c1C ?
Reply text: 210 to 212 °C

Inquiry: Also CC(C)(C)c1nc2ccc(N)cc2s1 ?
Reply text: 137 to 139 °C

Inquiry: Also O=C(O)c1ccc(F)c(S(=O)(=O)N2CCOCC2)c1 ?
Reply text: 175 to 178 °C

Inquiry: Also CN(C)S(=O)(=O)c1ccc(Cl)c(N)c1 ?
Reply text: 119 to 121 °C

* * *

property.name: melting point

Here's what some known entries look like.
Inquiry: Return reported melting point; argument: CC(C)(C)CC(O)C(=O)O (configuration not stated)
Reply text: 71 to 73 °C

Inquiry: Also COC(=O)c1cccc(S(=O)(=O)Cl)c1 ?
Reply text: 51 to 53 °C

Continuing:
Inquiry: Return reported melting point; argument: O=C(Nc1ccc(Br)cc1)c1cccnc1Cl
Reply text: 150 to 152 °C

Inquiry: Also CN(c1ccccc1)c1ccc(C(=O)O)cn1 ?
Reply text: 176 to 178 °C

Inquiry: Also O=C1NCC2(CCCC2)O1 ?
Reply text: 89 to 91 °C

Inquiry: Also CC(C)Oc1ccc([N+](=O)[O-])c(C(=O)O)c1 ?
Reply text: 135 to 137 °C

Inquiry: Also Cc1nn(C)c(Cl)c1Cn1cc(Br)cn1 ?
Reply text: 52 to 54 °C

Inquiry: Also Fc1ccc(-c2csc3ncnc(Cl)c23)cc1 ?
Reply text: 139 to 141 °C

* * *

Listing: melting point of selected compounds

Here's what some known entries look like.
Inquiry: Return reported melting point; argument: Clc1ccnc2cc(Br)ccc12
Reply text: 99 to 101 °C

Inquiry: Also CC(N)c1ccc(-n2cncn2)cc1 (centres undefined) ?
Reply text: 78 to 80 °C

Inquiry: Also CN(CC(=O)O)C(=O)Nc1cccc([N+](=O)[O-])c1 ?
Reply text: 157 to 159 °C

Inquiry: Also O=C(O)c1nnn(-c2ccc(F)cc2)c1C(F)(F)F ?
Reply text: 146 to 148 °C

Inquiry: Also CC(=O)NC(C)c1ccc(-c2csc(N)n2)cc1 (centres undefined) ?
Reply text: 225 to 227 °C

Continuing:
Inquiry: Return reported melting point; argument: CCCS(=O)(=O)N1CCC(=NO)CC1
Reply text: 146 to 148 °C

Inquiry: Also CC(C)(C)c1nnc(CCl)o1 ?
Reply text: 42 to 44 °C

* * *

property.name: melting point

Inquiry: Return reported melting point; argument: CCOc1cc(C(=O)O)ccc1C
Reply text: 173 to 175 °C

Inquiry: Also N#Cc1ccc(Br)cc1C(F)(F)F ?
Reply text: 35 to 37 °C

Inquiry: Also NS(=O)(=O)c1ccc(CCNS(=O)(=O)c2cccc(C(=O)O)c2)cc1 ?
Reply text: 226 to 228 °C

Inquiry: Also O=C(O)CCc1ccc2c(c1)OCCCO2 ?
Reply text: 81 to 83 °C

Inquiry: Also O=C(O)c1oc2ccccc2c1COc1ccccc1 ?
Reply text: 163 to 165 °C

Inquiry: Also O=C(O)C1CCCN(c2ncnc3sccc23)C1 (stereo not given) ?
Reply text: 214 to 216 °C

Inquiry: Also Clc1cccc2c1NCC2 ?
Reply text: 29 to 31 °C

Inquiry: Also CC(C)CC(=O)N1Cc2ccccc2CC1C(=O)O (stereo not given) ?
Reply text: 169 to 171 °C

Inquiry: Also CC(=O)c1nnn(-c2ccccc2)c1C ?
Reply text: 99 to 101 °C

Let us move to another entry and its melting point.
Inquiry: Return reported melting point; argument: O=C(CCl)N(C1CCCCC1)C1CCS(=O)(=O)C1 (stereo not given)
Reply text: 162 to 164 °C

* * *

Listing: melting point of selected compounds

Here's what some known entries look like.
Inquiry: Return reported melting point; argument: COc1ccc(S(N)(=O)=O)cc1NC(=O)CCl
Reply text: 169 to 171 °C

Inquiry: Also Cc1cc(C(=O)O)nn1-c1ccc(Cl)cc1Cl ?
Reply text: 199 to 201 °C

Inquiry: Also Cc1noc(C)c1S(=O)(=O)NCCC(=O)O ?
Reply text: 105 to 118 °C

Inquiry: Also COC(=O)c1cccc(-c2nc(CCl)cs2)c1 ?
Reply text: 129 to 131 °C

Inquiry: Also CC1=CC(=O)N(c2ccccc2F)C1=O ?
Reply text: 83 to 85 °C

Continuing:
Inquiry: Return reported melting point; argument: COc1cc(C=O)ccc1OCc1csc(C)n1
Reply text: 86 to 88 °C

Inquiry: Also CN(C)S(=O)(=O)c1ccc(N)nc1 ?
Reply text: 150 to 152 °C

Inquiry: Also Cc1cc(C(=O)CCl)c(C)n1-c1cccc(Cl)c1 ?
Reply text: 116 to 118 °C

Inquiry: Also CC(C)(C)n1ncc(Cl)c(Cl)c1=O ?
Reply text: 64 to 66 °C

Inquiry: Also N#Cc1cnn2c(O)cc(CCl)nc12 ?
Reply text: 369 to 371 °C

Inquiry: Also Nc1scnc1-c1ccccc1 ?
Reply text: 130 to 132 °C

Inquiry: Also CNC1CCCN(c2ccccc2)C1=O (configuration not stated) ?
Reply text: 76 to 78 °C

* * *

Listing: melting point of selected compounds

Inquiry: Return reported melting point; argument: CC(C)(C)OC(=O)N1CCN(c2nnc(N)[nH]2)CC1
Reply text: 178 to 180 °C

Inquiry: Also O=C(O)c1cn(Cc2ccccc2)nn1 ?
Reply text: 176 to 178 °C

Inquiry: Also Cc1ccc(NC(=O)C2CC2)cc1N ?
Reply text: 163 to 165 °C

Continuing:
Inquiry: Return reported melting point; argument: O=C(O)c1nn(-c2ccc(F)cc2)c2c1CCCCC2
Reply text: 167 to 169 °C

* * *

property.name: melting point

Here's what some known entries look like.
Inquiry: Return reported melting point; argument: Cc1ccc(S(=O)(=O)NC(C(=O)O)C(C)O)cc1 (stereo not drawn)
Reply text: 177 to 179 °C

Inquiry: Also Cc1cc([N+](=O)[O-])ccc1C#N ?
Reply text: 99 to 101 °C

Inquiry: Also O=[N+]([O-])c1ccc(NC2CCCC2)nc1 ?
Reply text: 114 to 116 °C

Inquiry: Also CCn1cc(N)c(=O)c(Br)c1 ?
Reply text: 116 to 118 °C

Inquiry: Also COC(=O)c1sc2ccccc2c1S(=O)(=O)Cl ?
Reply text: 98 to 100 °C

Inquiry: Also O=[N+]([O-])c1cnc(Cl)c(Cl)c1 ?
Reply text: 52 to 54 °C

Continuing:
Inquiry: Return reported melting point; argument: O=C(O)C1CN(C(=O)c2ccco2)c2ccccc2O1 (stereo not drawn)
Reply text: 154 to 156 °C

Inquiry: Also O=C1CNC(=O)N1CCCl ?
Reply text: 114 to 116 °C

* * *

property.name: melting point

Here's what some known entries look like.
Inquiry: Return reported melting point; argument: CC1(C)CCCCC1CC(=O)O (configuration not stated)
Reply text: 41 to 43 °C

Inquiry: Also Nc1cccc(Cn2nc3ccccn3c2=O)c1 ?
Reply text: 127 to 129 °C

Inquiry: Also Cc1cc(C)cc(OCC(=O)N2Cc3ccccc3CC2C(=O)O)c1 (configuration not stated) ?
Reply text: 161 to 165 °C

Continuing:
Inquiry: Return reported melting point; argument: Clc1nnc(-c2ccccc2)n1C1CC1
Reply text: 159 to 161 °C

Inquiry: Also CN(C)c1ccc2cc(N)ccc2n1 ?
Reply text: 84 to 86 °C

Inquiry: Also Fc1ccc(-c2cnc(S)o2)cc1 ?
Reply text: 252 to 254 °C

Inquiry: Also O=C(CBr)c1ccc2c(c1)Cc1ccccc1-2 ?
Reply text: 141 to 143 °C

Inquiry: Also Clc1nc(C=Cc2ccc(Br)cc2)nc2sc3c(c12)CCCC3 ?
Reply text: 168 to 170 °C

Inquiry: Also O=C(O)c1cc2ccccc2cc1NC(=O)C1CC1 ?
Reply text: 235 to 237 °C

Inquiry: Also Nc1ncn(-c2ccncc2)n1 ?
Reply text: 213 to 215 °C

Inquiry: Also Cn1cnc2c(Br)cccc21 ?
Reply text: 101 to 103 °C
